All values here come from patent US7416885B2.

Study system: receptors for dihydropyridines (Homo sapiens, UniProt Q13698)
Construct: endogenous in cells
Sequence (Q13698 whole entry): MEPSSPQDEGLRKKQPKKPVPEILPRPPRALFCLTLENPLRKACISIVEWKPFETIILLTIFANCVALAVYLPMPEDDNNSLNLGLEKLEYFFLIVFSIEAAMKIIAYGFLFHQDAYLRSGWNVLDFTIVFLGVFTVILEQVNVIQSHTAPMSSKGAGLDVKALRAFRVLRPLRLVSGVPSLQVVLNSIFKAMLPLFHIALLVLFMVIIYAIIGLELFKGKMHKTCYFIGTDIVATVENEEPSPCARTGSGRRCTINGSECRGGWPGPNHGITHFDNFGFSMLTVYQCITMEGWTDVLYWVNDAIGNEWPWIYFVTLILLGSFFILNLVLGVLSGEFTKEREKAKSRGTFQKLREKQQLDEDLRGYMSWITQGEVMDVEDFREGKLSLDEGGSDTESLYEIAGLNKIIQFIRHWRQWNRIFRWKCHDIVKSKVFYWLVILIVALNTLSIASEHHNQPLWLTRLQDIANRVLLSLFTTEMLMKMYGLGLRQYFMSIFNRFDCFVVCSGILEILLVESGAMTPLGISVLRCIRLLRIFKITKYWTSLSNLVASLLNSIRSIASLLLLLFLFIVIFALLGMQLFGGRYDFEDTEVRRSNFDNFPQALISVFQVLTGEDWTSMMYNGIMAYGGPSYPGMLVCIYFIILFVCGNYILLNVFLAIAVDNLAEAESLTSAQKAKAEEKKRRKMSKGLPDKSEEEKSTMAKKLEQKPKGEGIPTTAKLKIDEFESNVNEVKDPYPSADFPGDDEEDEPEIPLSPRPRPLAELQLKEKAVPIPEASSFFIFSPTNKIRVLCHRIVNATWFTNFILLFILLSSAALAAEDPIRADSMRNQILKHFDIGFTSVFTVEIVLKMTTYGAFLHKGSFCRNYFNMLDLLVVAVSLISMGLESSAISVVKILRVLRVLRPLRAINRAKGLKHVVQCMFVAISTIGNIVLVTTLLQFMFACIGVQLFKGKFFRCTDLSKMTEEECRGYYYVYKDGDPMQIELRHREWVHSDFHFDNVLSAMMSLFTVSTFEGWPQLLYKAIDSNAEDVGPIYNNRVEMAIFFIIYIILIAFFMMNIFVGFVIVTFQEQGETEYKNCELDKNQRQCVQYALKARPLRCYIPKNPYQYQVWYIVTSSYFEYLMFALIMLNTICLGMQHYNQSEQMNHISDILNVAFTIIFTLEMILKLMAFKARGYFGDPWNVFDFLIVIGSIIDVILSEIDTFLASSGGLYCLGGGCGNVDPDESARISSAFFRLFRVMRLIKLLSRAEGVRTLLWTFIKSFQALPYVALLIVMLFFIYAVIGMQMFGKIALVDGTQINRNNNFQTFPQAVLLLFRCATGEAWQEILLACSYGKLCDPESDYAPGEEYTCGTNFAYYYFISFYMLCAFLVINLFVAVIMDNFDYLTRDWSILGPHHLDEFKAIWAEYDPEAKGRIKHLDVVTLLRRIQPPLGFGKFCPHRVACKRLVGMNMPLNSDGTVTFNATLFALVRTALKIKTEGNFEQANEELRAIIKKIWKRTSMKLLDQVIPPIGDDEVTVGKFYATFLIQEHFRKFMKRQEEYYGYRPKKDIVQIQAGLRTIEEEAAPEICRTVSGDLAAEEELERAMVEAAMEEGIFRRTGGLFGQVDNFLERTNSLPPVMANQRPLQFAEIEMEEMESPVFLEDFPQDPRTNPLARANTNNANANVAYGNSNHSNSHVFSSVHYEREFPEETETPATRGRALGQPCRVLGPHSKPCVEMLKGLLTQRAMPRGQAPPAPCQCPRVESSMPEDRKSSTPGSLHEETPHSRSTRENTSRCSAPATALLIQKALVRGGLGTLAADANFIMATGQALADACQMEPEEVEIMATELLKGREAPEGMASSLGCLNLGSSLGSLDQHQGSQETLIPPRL
Test summary: dihydropyridine ([3H]PN200-110) binding to RCMH cells
Readout kind: pKd
Scale: pKd equals -log10([C]), with [C] in mol/L.

Looking for the measured pKd of COC(=O)C1=C(C)NC(C)=C(C(=O)OC(C)C)C1c1cccc2nonc12 (stereo not shown) [[^3H]PN200-110] , can you help? 9.30

----------
Study system: microsomal fraction from RCVC cells (Rattus norvegicus, UniProt P22002)
Sequence (P22002 whole entry): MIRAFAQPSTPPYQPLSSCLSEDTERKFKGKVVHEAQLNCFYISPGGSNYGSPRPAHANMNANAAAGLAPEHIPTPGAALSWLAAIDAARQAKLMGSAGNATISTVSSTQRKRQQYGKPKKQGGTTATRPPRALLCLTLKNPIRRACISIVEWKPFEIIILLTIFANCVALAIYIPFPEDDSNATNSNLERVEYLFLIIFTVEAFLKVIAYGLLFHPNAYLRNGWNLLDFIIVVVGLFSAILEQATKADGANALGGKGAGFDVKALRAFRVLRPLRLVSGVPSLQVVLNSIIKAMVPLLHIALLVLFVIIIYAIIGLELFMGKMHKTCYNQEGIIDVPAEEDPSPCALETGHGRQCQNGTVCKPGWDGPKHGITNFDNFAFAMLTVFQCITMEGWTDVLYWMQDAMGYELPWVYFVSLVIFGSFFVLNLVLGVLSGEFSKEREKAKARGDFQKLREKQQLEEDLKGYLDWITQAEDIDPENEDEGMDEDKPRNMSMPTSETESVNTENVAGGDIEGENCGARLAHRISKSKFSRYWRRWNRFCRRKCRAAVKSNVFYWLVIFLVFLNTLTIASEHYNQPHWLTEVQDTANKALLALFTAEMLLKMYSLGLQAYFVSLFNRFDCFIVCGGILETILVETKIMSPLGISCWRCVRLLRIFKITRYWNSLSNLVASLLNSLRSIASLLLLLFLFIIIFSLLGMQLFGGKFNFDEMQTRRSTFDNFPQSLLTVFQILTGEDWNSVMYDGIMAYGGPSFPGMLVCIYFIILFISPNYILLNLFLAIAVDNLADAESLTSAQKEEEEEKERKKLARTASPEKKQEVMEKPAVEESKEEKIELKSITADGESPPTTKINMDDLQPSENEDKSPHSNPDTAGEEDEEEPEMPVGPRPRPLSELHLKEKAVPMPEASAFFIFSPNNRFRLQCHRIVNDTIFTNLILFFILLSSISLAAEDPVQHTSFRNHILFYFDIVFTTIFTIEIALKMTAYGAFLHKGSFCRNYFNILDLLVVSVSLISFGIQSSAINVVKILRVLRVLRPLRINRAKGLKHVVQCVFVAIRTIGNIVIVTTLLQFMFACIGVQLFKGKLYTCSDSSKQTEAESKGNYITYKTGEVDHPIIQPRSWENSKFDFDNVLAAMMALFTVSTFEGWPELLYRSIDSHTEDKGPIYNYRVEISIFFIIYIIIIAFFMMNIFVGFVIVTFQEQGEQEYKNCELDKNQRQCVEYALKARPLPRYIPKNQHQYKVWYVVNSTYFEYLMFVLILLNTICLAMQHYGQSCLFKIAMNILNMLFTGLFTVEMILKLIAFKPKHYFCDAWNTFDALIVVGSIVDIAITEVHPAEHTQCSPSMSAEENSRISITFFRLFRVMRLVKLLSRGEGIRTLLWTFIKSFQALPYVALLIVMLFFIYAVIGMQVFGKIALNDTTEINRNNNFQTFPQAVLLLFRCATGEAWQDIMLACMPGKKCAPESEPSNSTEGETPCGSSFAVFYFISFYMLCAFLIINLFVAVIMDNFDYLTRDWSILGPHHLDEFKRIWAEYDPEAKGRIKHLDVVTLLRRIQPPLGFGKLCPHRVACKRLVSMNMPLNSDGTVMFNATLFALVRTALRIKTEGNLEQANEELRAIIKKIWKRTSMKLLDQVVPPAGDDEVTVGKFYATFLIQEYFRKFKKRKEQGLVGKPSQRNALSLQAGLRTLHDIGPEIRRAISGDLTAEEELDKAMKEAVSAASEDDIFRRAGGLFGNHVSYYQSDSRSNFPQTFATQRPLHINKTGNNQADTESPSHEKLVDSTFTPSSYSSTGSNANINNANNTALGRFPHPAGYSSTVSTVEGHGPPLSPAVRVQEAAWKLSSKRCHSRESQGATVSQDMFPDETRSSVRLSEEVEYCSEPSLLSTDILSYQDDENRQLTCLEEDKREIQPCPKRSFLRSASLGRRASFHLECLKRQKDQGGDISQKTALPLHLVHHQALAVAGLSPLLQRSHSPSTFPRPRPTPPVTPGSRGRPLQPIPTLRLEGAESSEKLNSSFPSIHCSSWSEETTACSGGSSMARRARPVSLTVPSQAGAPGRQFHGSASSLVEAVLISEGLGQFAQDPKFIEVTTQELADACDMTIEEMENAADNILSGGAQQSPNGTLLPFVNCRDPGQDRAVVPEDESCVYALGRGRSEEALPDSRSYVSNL
Readout kind: Kd (nM)
Expressed in nM, but write only the number.

Looking for the measured Kd of CCOC(=O)C1=C(C)NC(C)=C(C(=O)OC)C1c1cccc([N+](=O)[O-])c1 (stereo not shown) , can you help? 0.7
